Biological target: UniProt:P37840
Test: In vitro direct determination of Kd and Bmax by fluorescence, α-syn fibers
Format: binding
Settings: density of binding sites; direct fluorescence, Scatchard analysis
A collection of compounds and their measured αsyn Bmax1
Measured parameter: αsyn Bmax1 (nmol/μmol prot)

# Compound, Experimental value
data = [
    ("CN(C)c1ccc(C#Cc2cc3cnccc3[nH]2)cc1 [Compound 22d]", 6.0),
    ("CNc1ccc(/C=C/c2ccc(OCCOCCOCCF)nc2)cc1 [AV45, reference compound]", 27.9),
    ("CN(C)c1ccc(C#Cc2cc3cccnc3[nH]2)cc1 [Compound 22a]", 69.5),
    ("CN(C)c1ccc(C#Cc2cc3ccc(-c4cccs4)nc3[nH]2)cc1 [Compound 25a]", 53.5),
    ("CN(C)c1ccc(C#Cc2cc3ncccc3[nH]2)cc1 [Compound 22c]", 82.5),
    ("CC(=C(C#N)C#N)c1ccc2cc(N(C)CCF)ccc2c1 [FDDNP, reference compound]", 39.5),
    ("CN(C)c1ccc(C#Cc2cc3ccncc3[nH]2)cc1 [Compound 22b]", 80.0),
    ("CN(CCF)c1ccc(C#Cc2cc3cccnc3[nH]2)cc1 [Compound 28]", 141.5),
]

----------
A collection of compounds and their measured αsyn Bmax1 (number of sites/monomer)
Target: UniProt P37840
Assay: In vitro direct determination of Kd and Bmax by fluorescence, α-syn fibers
Type: binding
Details: in brackets in the Bmax cell
Measured parameter: αsyn Bmax1 (number of sites/monomer)

# Compound, Target of assay, Experimental value
rows = [
    ("CC(=C(C#N)C#N)c1ccc2cc(N(C)CCF)ccc2c1 [FDDNP, reference compound]", "UniProt P37840", "1/25"),
    ("CNc1ccc(/C=C/c2ccc(OCCOCCOCCF)nc2)cc1 [AV45, reference compound]", "UniProt P37840", "1/35"),
    ("CN(C)c1ccc(C#Cc2cc3ccc(-c4cccs4)nc3[nH]2)cc1 [Compound 25a]", "UniProt P37840", "1/20"),
    ("CN(C)c1ccc(C#Cc2cc3ccncc3[nH]2)cc1 [Compound 22b]", "UniProt P37840", "1/15"),
    ("CN(CCF)c1ccc(C#Cc2cc3cccnc3[nH]2)cc1", "UniProt P37840", "1/7"),
    ("CN(C)c1ccc(C#Cc2cc3ncccc3[nH]2)cc1 [Compound 22c]", "UniProt P37840", "1/12"),
    ("CN(C)c1ccc(C#Cc2cc3cccnc3[nH]2)cc1 [Compound 22a]", "UniProt P37840", "1/14"),
    ("CN(C)c1ccc(C#Cc2cc3cnccc3[nH]2)cc1 [Compound 22d]", "UniProt P37840", "1/170"),
]

----------
A set of molecules tested on Aβ1-42 fibers (Homo sapiens), with measured pKd:
pKd: −log10 of the molar value.

# Molecule, pKd
records = [
    ("CNc1ccc(/C=C/c2ccc(OCCOCCOCCF)nc2)cc1 [AV45, reference compound]", 8.77),
    ("CN(C)c1ccc(C#Cc2cc3ccc(-c4ccsc4)nc3[nH]2)cc1 [Compound 25b]", 8.37),
    ("CN(C)c1ccc(C#Cc2cc3cccnc3[nH]2)cc1 [Compound 22a]", 7.93),
    ("CN(C)c1ccc(C#Cc2cc3ccc(-c4ccc(F)nc4)nc3[nH]2)cc1 [Compound 25c]", 8.51),
    ("CN(CCF)c1ccc(C#Cc2cc3cccnc3[nH]2)cc1", 8.92),
    ("CN(C)c1ccc(C#Cc2cc3ncccc3[nH]2)cc1 [Compound 22c]", 8.54),
    ("CN(C)c1ccc(C#Cc2cc3ccc(F)nc3[nH]2)cc1 [Compound 22f]", 7.77),
    ("CN(C)c1ccc(C#Cc2cc3cnccc3[nH]2)cc1 [Compound 22d]", 8.44),
    ("CN(C)c1ccc(C#Cc2cc3ccc(-c4cccs4)nc3[nH]2)cc1 [Compound 25a]", 8.31),
    ("CC(=C(C#N)C#N)c1ccc2cc(N(C)CCF)ccc2c1 [FDDNP, reference compound]", 8.38),
    ("CN(C)c1ccc(C#Cc2cc3ccncc3[nH]2)cc1 [Compound 22b]", 8.28),
]

----------
Molecular target: Tau fibers (Homo sapiens (Human), UniProt P10636)
Sequence (P10636 other isoform, or with tags, fused parts or gaps): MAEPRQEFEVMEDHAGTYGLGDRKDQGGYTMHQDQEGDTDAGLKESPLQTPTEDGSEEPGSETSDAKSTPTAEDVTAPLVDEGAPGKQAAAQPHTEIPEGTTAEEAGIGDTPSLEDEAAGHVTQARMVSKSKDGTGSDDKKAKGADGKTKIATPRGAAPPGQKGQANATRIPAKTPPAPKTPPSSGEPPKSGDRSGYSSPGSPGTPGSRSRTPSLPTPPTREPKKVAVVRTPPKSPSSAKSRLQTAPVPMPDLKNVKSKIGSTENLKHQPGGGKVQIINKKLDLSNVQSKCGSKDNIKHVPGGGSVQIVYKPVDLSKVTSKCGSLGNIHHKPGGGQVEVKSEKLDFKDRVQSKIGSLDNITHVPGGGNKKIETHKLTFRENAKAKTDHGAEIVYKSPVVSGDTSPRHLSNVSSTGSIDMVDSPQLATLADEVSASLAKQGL
Experiment: In vitro direct determination of Kd and Bmax by fluorescence, Tau fibers
Assay type: binding
Conditions: in brackets in the Bmax cell
Measured parameter: Tau Bmax1 (number of sites/monomer)

# Compound, Measured parameter, Experimental value
measured = [
    ("CN(C)c1ccc(C#Cc2cc3cnccc3[nH]2)cc1 [Compound 22d]", "Tau Bmax1 (number of sites/monomer)", "1/80"),
    ("CN(C)c1ccc(C#Cc2cc3cccnc3[nH]2)cc1 [Compound 22a]", "Tau Bmax1 (number of sites/monomer)", "1/10"),
    ("CC(=C(C#N)C#N)c1ccc2cc(N(C)CCF)ccc2c1 [FDDNP, reference compound]", "Tau Bmax1 (number of sites/monomer)", "1/7"),
]

----------
Target: α-syn fibers (Homo sapiens (Human))
Test: In vitro direct determination of Kd and Bmax by fluorescence, α-syn fibers
Format: binding
Details: selective = good affinity and at least two times greater than for at least one of the two other proteins
Measured parameter: α-syn selectivity according to analysis of Kd (Tables 6 and 7)

# Compound, Experimental value
records = [
    ("CN(C)c1ccc(C#Cc2cc3cccnc3[nH]2)cc1 [Compound 22a]", "selective"),
    ("CN(C)c1ccc(C#Cc2cc3cnccc3[nH]2)cc1 [Compound 22d]", "selective"),
    ("CN(C)c1ccc(C#Cc2cc3ccncc3[nH]2)cc1 [Compound 22b]", "selective"),
    ("CN(C)c1ccc(C#Cc2cc3ccc(-c4cccs4)nc3[nH]2)cc1 [Compound 25a]", "selective"),
]

----------
Target: α-syn fibers (Homo sapiens (Human))
pKd: −log10 of the molar value.
Label rule, in plain words: pKd of 9 and up is T, under 9 is F.

# Compound, Assigned label
measured = [
    ("CN(CCF)c1ccc(C#Cc2cc3cccnc3[nH]2)cc1", "F"),
    ("CN(C)c1ccc(C#Cc2cc3ccc(-c4cccs4)nc3[nH]2)cc1 [Compound 25a]", "T"),
    ("CN(C)c1ccc(C#Cc2cc3ncccc3[nH]2)cc1 [Compound 22c]", "F"),
    ("CN(C)c1ccc(C#Cc2cc3cccnc3[nH]2)cc1 [Compound 22a]", "T"),
]

----------
Molecular target: UniProt P10636
A collection of compounds and their measured Kd

# Compound, Kd
rows = [
    ("CC(=C(C#N)C#N)c1ccc2cc(N(C)CCF)ccc2c1 [FDDNP, reference compound]", "34.9 nM"),
    ("CN(C)c1ccc(C#Cc2cc3cnccc3[nH]2)cc1 [Compound 22d]", "2.4 nM"),
    ("CN(CCF)c1ccc(C#Cc2cc3cccnc3[nH]2)cc1 [Compound 28]", "0.97 nM"),
    ("CN(C)c1ccc(C#Cc2cc3ccc(-c4cccs4)nc3[nH]2)cc1 [Compound 25a]", "1.67 nM"),
    ("CN(C)c1ccc(C#Cc2cc3ccncc3[nH]2)cc1 [Compound 22b]", "0.49 nM"),
    ("CNc1ccc(/C=C/c2ccc(OCCOCCOCCF)nc2)cc1 [AV45, reference compound]", "19.6 nM"),
    ("CN(C)c1ccc(C#Cc2cc3ncccc3[nH]2)cc1 [Compound 22c]", "0.13 nM"),
    ("CN(C)c1ccc(C#Cc2cc3cccnc3[nH]2)cc1 [Compound 22a]", "0.44 nM"),
]

----------
Molecular target: Tau fibers (Homo sapiens (Human), UniProt P10636)
Assay: In vitro direct determination of Kd and Bmax by fluorescence, Tau fibers
Format: binding
Settings: density of binding sites; direct fluorescence, Scatchard analysis
A collection of molecules and their measured Tau Bmax1

# Molecule, Target of assay, Units of measure, Tau Bmax1
records = [
    ("CN(C)c1ccc(C#Cc2cc3ncccc3[nH]2)cc1 [Compound 22c]", "Tau fibers (Homo sapiens (Human), UniProt P10636)", "nmol/μmol prot", 26.5),
    ("CN(C)c1ccc(C#Cc2cc3ccncc3[nH]2)cc1 [Compound 22b]", "Tau fibers (Homo sapiens (Human), UniProt P10636)", "nmol/μmol prot", 37.1),
    ("CC(=C(C#N)C#N)c1ccc2cc(N(C)CCF)ccc2c1 [FDDNP, reference compound]", "Tau fibers (Homo sapiens (Human), UniProt P10636)", "nmol/μmol prot", 138.5),
    ("CN(CCF)c1ccc(C#Cc2cc3cccnc3[nH]2)cc1", "Tau fibers (Homo sapiens (Human), UniProt P10636)", "nmol/μmol prot", 46.5),
    ("CN(C)c1ccc(C#Cc2cc3ccc(-c4cccs4)nc3[nH]2)cc1 [Compound 25a]", "Tau fibers (Homo sapiens (Human), UniProt P10636)", "nmol/μmol prot", 70.4),
    ("CNc1ccc(/C=C/c2ccc(OCCOCCOCCF)nc2)cc1 [AV45, reference compound]", "Tau fibers (Homo sapiens (Human), UniProt P10636)", "nmol/μmol prot", 92.0),
    ("CN(C)c1ccc(C#Cc2cc3cnccc3[nH]2)cc1 [Compound 22d]", "Tau fibers (Homo sapiens (Human), UniProt P10636)", "nmol/μmol prot", 12.5),
    ("CN(C)c1ccc(C#Cc2cc3cccnc3[nH]2)cc1 [Compound 22a]", "Tau fibers (Homo sapiens (Human), UniProt P10636)", "nmol/μmol prot", 93.0),
]
